- tested on: MAP kinase-activated protein kinase 2 (Homo sapiens)
- Sequence (P49137 whole entry): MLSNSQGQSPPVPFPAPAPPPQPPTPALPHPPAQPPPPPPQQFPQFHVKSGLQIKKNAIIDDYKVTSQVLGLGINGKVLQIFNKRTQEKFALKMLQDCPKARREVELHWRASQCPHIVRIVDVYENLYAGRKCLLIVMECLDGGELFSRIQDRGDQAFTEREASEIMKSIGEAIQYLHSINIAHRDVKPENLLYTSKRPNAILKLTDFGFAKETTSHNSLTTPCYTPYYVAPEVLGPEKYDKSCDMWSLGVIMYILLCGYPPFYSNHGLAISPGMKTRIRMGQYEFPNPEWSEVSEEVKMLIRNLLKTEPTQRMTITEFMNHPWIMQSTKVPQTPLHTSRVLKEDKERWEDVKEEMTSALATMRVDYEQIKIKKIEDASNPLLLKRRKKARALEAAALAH
- protocol text: Inhibition of recombinant MK2 (unknown origin) using peptide as substrate
pIC50: −log10 of the molar value.
assay readout: pIC50

Problem: pIC50 for COc1cc2ncc(C#N)c(Nc3ccc(OCc4ccccn4)c(Cl)c3)c2cc1NC(=O)/C=C/CN(C)C ?
Result: < 4.35

---

- tested on: Inhibitor of nuclear factor kappa-B kinase subunit beta (Homo sapiens)
- Sequence (O14920 whole entry): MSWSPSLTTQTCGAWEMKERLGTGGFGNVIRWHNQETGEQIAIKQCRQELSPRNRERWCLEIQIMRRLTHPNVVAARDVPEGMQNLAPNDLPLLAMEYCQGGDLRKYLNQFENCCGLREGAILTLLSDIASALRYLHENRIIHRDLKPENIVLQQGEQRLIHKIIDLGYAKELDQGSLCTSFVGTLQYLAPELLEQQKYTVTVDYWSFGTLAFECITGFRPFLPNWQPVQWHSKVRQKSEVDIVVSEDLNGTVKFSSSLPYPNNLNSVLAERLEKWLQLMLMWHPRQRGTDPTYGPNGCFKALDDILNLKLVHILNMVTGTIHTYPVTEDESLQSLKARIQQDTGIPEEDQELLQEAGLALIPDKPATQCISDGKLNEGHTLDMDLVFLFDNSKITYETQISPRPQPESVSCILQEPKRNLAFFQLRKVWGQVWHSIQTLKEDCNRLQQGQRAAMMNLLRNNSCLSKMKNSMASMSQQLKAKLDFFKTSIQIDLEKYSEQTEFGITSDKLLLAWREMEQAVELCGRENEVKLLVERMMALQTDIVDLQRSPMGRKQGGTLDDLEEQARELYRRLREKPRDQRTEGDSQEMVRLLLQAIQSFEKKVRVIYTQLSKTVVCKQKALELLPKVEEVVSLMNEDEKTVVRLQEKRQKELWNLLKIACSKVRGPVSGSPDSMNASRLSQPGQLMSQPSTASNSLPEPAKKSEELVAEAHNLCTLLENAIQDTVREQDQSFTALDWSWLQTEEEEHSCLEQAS
- protocol text: Inhibition of recombinant IKK-2 (unknown origin) using peptide as substrate
pIC50: −log10 of the molar value.
assay readout: pIC50

Problem: pIC50 for COc1cc2ncc(C#N)c(Nc3ccc(OCc4ccccn4)c(Cl)c3)c2cc1NC(=O)/C=C/CN(C)C ?
Result: < 5.05

All values here come from ChEMBL document CHEMBL5661967.
